Catalogue of Kd readings, one per entry.
system_name: T1, recombinant his-tag human LAG3-ECD protein (human, UniProt P18627 23-450)
T1 construct: extracellular domain; not shown: his tag
T1 sequence (looked up): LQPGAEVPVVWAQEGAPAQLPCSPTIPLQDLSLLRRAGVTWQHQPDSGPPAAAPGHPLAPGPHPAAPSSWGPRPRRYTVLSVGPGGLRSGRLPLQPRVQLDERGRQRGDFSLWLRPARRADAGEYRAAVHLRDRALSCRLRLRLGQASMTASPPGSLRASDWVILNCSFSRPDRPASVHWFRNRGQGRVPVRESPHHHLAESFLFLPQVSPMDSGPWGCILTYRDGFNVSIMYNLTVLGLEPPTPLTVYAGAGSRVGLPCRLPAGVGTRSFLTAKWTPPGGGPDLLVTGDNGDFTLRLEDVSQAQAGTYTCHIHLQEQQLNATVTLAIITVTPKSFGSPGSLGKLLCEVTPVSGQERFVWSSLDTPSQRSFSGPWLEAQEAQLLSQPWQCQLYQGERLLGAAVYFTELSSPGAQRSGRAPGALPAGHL
protocol_details: SPR Biacore T200, antibody captured by anti-human Fc, LAG3-ECD-his injected
Just the number in nM, nothing appended.

Illustrative cases are given below, each with its answer.
binder	unit_text	Kd
NLAG3-HDB169-T99 (antibody, human IgG1, V domains shown, Short label tied by its unique suffix) VH: QVQLVQSGAEVKKPGSSVKVSCKASGGTFSSYAISWVRQAPGQGLEWMGGIIPIFGTANYAQKFQGRVTITADESTSTAYMELSSLRSEDTAVYYCVRDLQDWNYGGAAYWGQGTLVTVSS VL: VIWMTQSPSSLSASVGDSVTITCQASRDISNSLSWHQQKPGKAPKLLIYAASSLQSGVPSRFSGSGSGTDFTLTISSLQPEDFATYYCQQTKSFPLTFGGGTKVEIKR	nM	0.0224
NLAG3-HDB169-S24 (antibody, human IgG1, V domains shown, Short label tied by its unique suffix) VH: QVQLVQSGAEVKKPGSSVKVSCKASGGTFSSYAISWVRQAPGQGLEWMGGIIPIFGTANYAQKFQGRVTITADESTSTAYMELSSLRSEDTAVYYCTREPHFDYWGQGTLVTVSS VL: EIVMTQSPSSLSASVGDRVTITCQASQDISNYLNWYQQKPGKAPKLLIYDASNLETGVPSRFSGSGSGTEFTLTISSLRPEDFATYFCQQADSFPITFGQGTRLEIKR	nM	6.73

Field: next binder
[Q] Need Kd of NLAG3-HDB169-S87 (antibody, human IgG1, V domains shown, Short label tied by its unique suffix) VH: QVQLVQSGAEVKKPGSSVKVSCKASGGTFSSYAISWVRQAPGQGLEWMGGIIPIFGTANYAQKFQGRVTITADESTSTAYMELSSLRSEDTAVYYCAKDIRWYYGMDVWGQGTTVTVSS VL: DIVMTQSPSSVSAFVGDRVTITCRASQGVSSWLAWFQQKPGKAPKLLIYAASTLQSGVPSRFSGRGYGTEFTLTISSLQPEDLATYYCQQVKSFPLTFGGGTKVDIKR , thanks.
[A] 0.00251

Source of measurements: patent US20220363763A1
